# subject-of-test: wild-type human TRPV6 (hTRPV6) (Homo sapiens)
# Construct: Full-length wild-type or mutant human TRPV6 was expressed in HEK 293S cells as described above; expressed in transfected cells; host or cells: HEK 293S GnTI- cells, baculovirus (BacMam) transduction
# assay-text: Whole-cell patch-clamp recording of hTRPV6-mediated currents in HEK 293S cells
# Type: cell-based
observable: IC50 (µM)

molecule="O=c1c(-c2ccc(O)cc2)coc2cc(O)cc(O)c12 [genistein, 4′,5,7-trihydroxyisoflavone]" result_unit=µM reported_measurement=40.7

###

# subject-of-test: wild-type human TRPV6 (hTRPV6) (Homo sapiens, UniProt Q9H1D0)
# Construct: Full-length wild-type or mutant human TRPV6 was expressed in HEK 293S cells as described above; expressed in transfected cells; host or cells: HEK 293S GnTI- cells, baculovirus (BacMam) transduction
# assay-text: Fura-2-based ratiometric measurement of Ca2+ uptake in hTRPV6-expressing HEK 293S cells
# Format: cell-based
# protocol-conditions: wild-type, 10 mM Ca2+ after pre-incubation, mean ± SEM, n = 3; read-out: IC50, inhibition of hTRPV6-mediated Ca2+ uptake
observable: IC50 (µM)

molecule="O=c1c(-c2ccc(O)cc2)coc2cc(O)cc(O)c12 [genistein, 4′,5,7-trihydroxyisoflavone]" reported_measurement=113

###

# subject-of-test: H587A mutant TRPV6 (Homo sapiens, UniProt Q9H1D0, H627A)
# Construct: Full-length wild-type or mutant human TRPV6 was expressed in HEK 293S cells as described above
# assay-text: Fura-2-based measurement of Ca2+ uptake, H587A mutant channels
observable: IC50 (µM)

compound="O=c1c(-c2ccc(O)cc2)coc2cc(O)cc(O)c12 [genistein, 4′,5,7-trihydroxyisoflavone]" observable=IC50 reported_measurement=267

###

# subject-of-test: H582A mutant TRPV6 (Homo sapiens, UniProt Q9H1D0, H622A)
# Construct: Full-length wild-type or mutant human TRPV6 was expressed in HEK 293S cells as described above
# Sequence (Q9H1D0 41-765 H622A limits assumed): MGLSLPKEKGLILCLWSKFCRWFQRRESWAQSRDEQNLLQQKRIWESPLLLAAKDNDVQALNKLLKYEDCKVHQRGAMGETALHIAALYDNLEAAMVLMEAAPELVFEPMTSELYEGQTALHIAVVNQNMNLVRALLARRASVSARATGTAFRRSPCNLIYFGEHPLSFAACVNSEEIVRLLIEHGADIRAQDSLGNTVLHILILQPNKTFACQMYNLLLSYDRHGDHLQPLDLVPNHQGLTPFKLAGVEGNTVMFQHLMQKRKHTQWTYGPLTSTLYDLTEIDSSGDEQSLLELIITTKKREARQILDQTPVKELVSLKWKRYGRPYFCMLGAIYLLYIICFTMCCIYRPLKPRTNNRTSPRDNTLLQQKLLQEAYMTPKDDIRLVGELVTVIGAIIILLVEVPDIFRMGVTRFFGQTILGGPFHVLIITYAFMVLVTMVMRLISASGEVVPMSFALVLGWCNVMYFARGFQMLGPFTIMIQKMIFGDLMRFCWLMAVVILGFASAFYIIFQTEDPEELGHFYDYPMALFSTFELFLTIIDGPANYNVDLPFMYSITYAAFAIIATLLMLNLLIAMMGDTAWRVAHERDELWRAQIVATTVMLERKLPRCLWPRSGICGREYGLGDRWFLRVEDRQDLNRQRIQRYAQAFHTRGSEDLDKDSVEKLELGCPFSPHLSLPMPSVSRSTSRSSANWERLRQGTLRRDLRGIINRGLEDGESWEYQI
# assay-text: Fura-2-based measurement of Ca2+ uptake, H582A mutant channels
pIC50: −log10 of the molar value.
observable: pIC50

compound="O=c1c(-c2ccc(O)cc2)coc2cc(O)cc(O)c12 [genistein, 4′,5,7-trihydroxyisoflavone]" observable=pIC50 reported_measurement=3.74

These measurements were taken from paper PMC10169861.
